System: Cochliobolus miyabeanus
ASSAY_INFO: Activity against brown spot of rice caused by Cochliobolus miyabeanus, protective treatment
Type: in vivo
ASSAY_CONTEXT: Bipolaris oryzae, 144 h, read-out: Efficacy in % of the untreated control
OBSERVED_PROPERTY: pest or weed control at 16 ppm
Your reply should be a number followed by the unit it is expressed in.

Recorded pest or weed control at 16 ppm of CC1COC(Cn2cncn2)(c2ccc(Oc3ccc(Cl)cc3)cc2Cl)O1 (stereo not drawn) , please.
63%

Recorded pest or weed control at 16 ppm of CCCC(Cn1cncn1)c1ccc(Cl)cc1Cl (stereo not drawn) , please.
63%

---

Tested on: Cochliobolus miyabeanus
ASSAY_INFO: Activity against brown spot of rice caused by Cochliobolus miyabeanus, protective treatment
Format: in vivo
ASSAY_CONTEXT: Bipolaris oryzae, 144 h, read-out: Efficacy in % of the untreated control
OBSERVED_PROPERTY: pest or weed control at 16 ppm (%)
Kindly provide the numeric value in % only, without the unit symbol.

OC(Cc1ccccc1Cl)(Cn1nc[nH]c1=S)C1(Cl)CC1 (stereo not shown); 63
Clc1ccc(C2(Cn3cncn3)CC(Br)CO2)c(Cl)c1 (stereo not shown); 50
OC(Cn1cncn1)(c1ccc(F)cc1)c1ccccc1F (stereo not shown); 63

Continue with the compound presented below.
Requested read-out pest or weed control at 16 ppm, target or system Cochliobolus miyabeanus, entry CC(C)(C)C(O)/C(=C\c1ccc(Cl)cc1Cl)n1cncn1 (stereo not shown)
25
